Tested on: (5S,7S)-trans-conophthorin A-neuron OSN class
Experiment: net action potential response of A-neuron (blank-subtracted) (spikes/s (Hz)); higher = stronger excitation
Details: 10 µg on filter paper; neuron: A neuron (large spike amplitude)
MEASUREMENT_KIND: net action potential response

C=CC(C)(C)O: 3.33
CC(=O)OCCC(C)C [3-Methylbutyl acetate]: -2.67
CC1=CCC2C(C1)C2(C)C (single isomer, unassigned; (+)) [(+)-3-Carene]: 6.67
Cc1ccc(C(C)C)cc1: 3.5

Would you kindly look at the next entry?
For C=C(C)[C@@H]1CC=C(C)CC1 [(-)-Limonene] , what is its reported net action potential response?
0
